measured on: PDE4D2 (Homo sapiens, UniProt Q08499)
Sequence (Q08499 303-809 limits assumed): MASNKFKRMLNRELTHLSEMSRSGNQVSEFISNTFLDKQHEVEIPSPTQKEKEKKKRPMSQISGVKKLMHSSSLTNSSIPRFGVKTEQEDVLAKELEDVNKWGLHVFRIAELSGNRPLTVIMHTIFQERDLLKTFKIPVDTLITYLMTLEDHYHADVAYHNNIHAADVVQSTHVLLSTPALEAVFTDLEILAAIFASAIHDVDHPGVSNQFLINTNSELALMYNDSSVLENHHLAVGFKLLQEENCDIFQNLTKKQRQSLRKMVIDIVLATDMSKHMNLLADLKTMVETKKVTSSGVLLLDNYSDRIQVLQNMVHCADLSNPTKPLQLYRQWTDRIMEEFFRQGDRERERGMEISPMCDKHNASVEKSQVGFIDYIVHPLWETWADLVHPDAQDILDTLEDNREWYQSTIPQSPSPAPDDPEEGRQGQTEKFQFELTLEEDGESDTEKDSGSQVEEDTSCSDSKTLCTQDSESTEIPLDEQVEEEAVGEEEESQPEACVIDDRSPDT
experimental protocol: PDE4D2 enzyme experiment (AMP-Glo)
measurement conditions: read-out: PDE4D2 IC50 Binding; enzyme assay
pIC50: −log10 of the molar value.
property measured: pIC50

Reference set (5 entries):
[O-][S+]1CCc2nc(N3CCc4cc(N5CCCC5)ccc4C3)nc(Nc3cn[nH]c3)c21 (centres unmarked); 8.97
[O-][S+]1CCc2nc(N3CCc4cc(N5CC6COCC6C5)ccc4C3)nc(NC3(CO)CCC3)c21 (centres unmarked); 9.55
CC(C)(O)[C@@H]1CCN(c2ccc3c(c2)CCN(c2nc4c(c(NC5(CO)CCC5)n2)[S+]([O-])CC4)C3)C1 (some centres unmarked); 9.41
COC(=O)N1CC[C@H](Nc2nc(N3CCc4cc(N5CCCC5)ccc4C3)nc3c2[S+]([O-])CC3)C1 (some centres unmarked); 9.61
CO[C@H]1CCN(c2ccc3c(c2)CCN(c2nc4c(c(NC5(CO)CCC5)n2)[S+]([O-])CC4)C3)C1 (some centres unmarked); 9.18

1. C[C@@H]1Cc2cc(Cl)ccc2CN1c1nc2c(c(NC3(CO)CCC3)n1)[S+]([O-])CC2 (some centres unmarked)
2. [O-][S+]1CCc2nc(N3CCc4cc(N5CC[C@@H](O)C5)ccc4C3)nc(NC3(CO)CCC3)c21 (some centres unmarked)
3. CN(C)C1CCN(c2ccc3c(c2)CCN(c2nc4c(c(NC5(CO)CCC5)n2)[S+]([O-])CC4)C3)C1 (centres unmarked)
4. C[C@H]1c2ccc(N3CCCC3)cc2CCN1c1nc2c(c(NC3(CO)COC3)n1)[S+]([O-])CC2 (some centres unmarked)
q: # rank_down: sort by pIC50, max first Return the labels ranked in the requested order, please.
a: 4, 2, 3, 1

P. [O-][S+]1CCc2nc(N3CCc4cc(N5CC[C@@H](F)C5)ccc4C3)nc(NC3(CO)CCC3)c21 (some centres unmarked)
Q. CN1CCN(c2ccc3c(c2)CCN(c2nc4c(c(NC5(CO)CCC5)n2)[S+]([O-])CC4)C3)CC1 (centres unmarked)
q: Lab note: record which item had the higher pIC50, P or Q . Answer by stating the label of the chosen item.
a: P
(P: 9.16, Q: 8.89)
